Tested on: SARS-CoV-2-NLuc in A549-hACE2 cells
Experiment: microbe, parasite or virus in culture
Assay type: cell-based
Conditions: Severe acute respiratory syndrome coronavirus 2, 48 h, read-out: MPro EC50
pEC50: −log10 of the molar value.

| compound | pEC50 |
| --- | --- |
| COc1ccc(Cl)c(-c2cc3[nH]c(=O)n([C@@H]4CCCNC(=O)C4)c(=O)c3s2)c1 (single isomer, unassigned) | 7.90 |
| COc1ccc(Cl)c(-c2cc3[nH]c(=O)n([C@H]4CCCNC(=O)C4)c(=O)c3s2)c1 (single isomer, unassigned) | 6.85 |
| O=C1C[C@@H](n2c(=O)[nH]c3cc(-c4ccccc4Cl)sc3c2=O)CCCN1 (single isomer, unassigned) | 6.81 |
| O=C1C[C@H](n2c(=O)[nH]c3cc(-c4ccccc4Cl)sc3c2=O)CCCN1 (single isomer, unassigned) | 7.65 |

###

This listing pairs molecules with measured EC50.
Tested on: SARS-CoV-2-NLuc in A549-hACE2 cells
Assay: microbe, parasite or virus in culture
Assay type: cell-based
Conditions: Severe acute respiratory syndrome coronavirus 2, 48 h; read-out: MPro EC50
metric name: EC50 (nM)

| molecule | metric name | result comparator | quantitative result |
| --- | --- | --- | --- |
| N#CCCn1c(=O)n([C@@H]2CCCNC(=O)C2)c(=O)c2sc(-c3ccccc3C#N)cc21 [Example 52] | EC50 | = | 619 |
| COc1cc(-c2cc3[nH]c(=O)n([C@@H]4CCCNC(=O)C4)c(=O)c3s2)c(C)cc1F [Example 45] | EC50 | = | 137 |
| COc1ccc(Cl)c(-c2ccc3c(=O)n(C4CCCNC(=O)C4)c(=O)[nH]c3c2)c1 (centres unmarked) [Example 27] | EC50 | = | 646 |
| COc1cc(-c2cc3c(s2)c(=O)n([C@@H]2CCCNC(=O)C2)c(=O)n3Cc2ncn(C)n2)c(Cl)cc1F [Example 41] | EC50 | = | 358 |
| CNC(=O)CCn1c(=O)n([C@@H]2CCCNC(=O)C2)c(=O)c2sc(-c3cc(OC)c(F)cc3Cl)cc21 [Example 42] | EC50 | = | 242 |
| O=C1CC(n2c(=O)[nH]c3cc(-c4ccccc4Cl)ccc3c2=O)CCCN1 (centres unmarked) [Example 9] | EC50 | = | 4850 |
| COc1cc(-c2cc3[nH]c(=O)n([C@@H]4CC(=O)NC[C@@H](C)C4)c(=O)c3s2)c(Cl)cc1F (single isomer, unassigned) [Example 53] | EC50 | = | 34 |
| COc1cc(-c2cc3[nH]c(=O)n([C@H]4CNC(=O)C4)c(=O)c3o2)c(Cl)cc1F [Example 57] | EC50 | > | 1000 |
| COc1cc(-c2cc3[nH]c(=O)n([C@@H]4CC(=O)NC[C@H](C)C4)c(=O)c3s2)c(Cl)cc1F (single isomer, unassigned) [Example 54] | EC50 | = | 20.4 |
| O=C1CC(n2c(=O)[nH]c3cc(-c4ccccc4Cl)sc3c2=O)CCN1 (centres unmarked) [Example 1] | EC50 | = | 255 |
| COc1cc(-c2cc3c(s2)c(=O)n([C@@H]2CCCNC(=O)C2)c(=O)n3CCC#N)c(C#N)cc1F [Example 49] | EC50 | > | 1000 |
| COc1cc(-c2cc3c(s2)c(=O)n([C@@H]2CCCNC(=O)C2)c(=O)n3CCN2CCCC2=O)c(Cl)cc1F [Example 39] | EC50 | = | 148 |
| COc1cc(-c2cc3[nH]c(=O)n([C@H]4CCNC(=O)C4)c(=O)c3s2)c(Cl)cc1F [Example 16] | EC50 | = | 222 |
| COc1cc(-c2cc3c(s2)c(=O)n([C@@H]2CCCNC(=O)C2)c(=O)n3CCC#N)c(Cl)cc1F [Example 48] | EC50 | = | 16.4 |
| O=C1C[C@H](n2c(=O)[nH]c3cc(-c4ccccc4Cl)ccc3c2=O)CCN1 [Example 6] | EC50 | = | 29900 |
| COc1cc(-c2cc3c(s2)c(=O)n([C@@H]2CCCNC(=O)C2)c(=O)n3CCOC(F)(F)F)c(Cl)cc1F [Example 38] | EC50 | = | 208 |
| COc1cc(-c2cc3c(s2)c(=O)n([C@@H]2CCCNC(=O)C2)c(=O)n3CC2(C#N)CC2)c(Cl)cc1F [Example 36] | EC50 | < | 4.07 |
| COc1cc(-c2cc3[nH]c(=O)n([C@@H]4CCCNC(=O)C4)c(=O)c3s2)c(C#N)cc1F [Example 46] | EC50 | = | 771 |
| O=C1C[C@@H](n2c(=O)[nH]c3cc(-c4ccccc4Cl)sc3c2=O)CN1 [Example 3] | EC50 | = | 6830 |
| COc1cc(-c2cc3c(s2)c(=O)n([C@@H]2CCCNC(=O)C2)c(=O)n3CCC(=O)N(C)C)c(Cl)cc1F [Example 40] | EC50 | = | 137 |

Source listed as patent US20250276979A1.
